# experimental details: PK in monkey
# test context: in vivo, IV 2 mg/kg
Please provide measured half-life for the entries that follow.
Write down the numeric answer in h and omit the unit.

GET /value?item= CCC(C)(C)C(=O)N(O)Cc1ccccc1 [Compound 92, reference compound] &field=half-life returns 0.77

What the record says about "CCC(C)(C)C(=O)N(O)Cc1cc(F)cc(F)c1" : half-life is 11.2

---

# experimental details: PK in dog
# test context: in vivo, IV 2 mg/kg
assay readout: AUC(0-inf) (ng·h/mL)
# output: bare number, implied unit ng·h/mL

Sure, the documented AUC(0-inf) for "CCC(C)(C)C(=O)N(O)Cc1cc(F)cc(F)c1" is 1840

---

# experimental details: PK in monkey
# test context: in vivo, PO 10 mg/kg
assay readout: bioavailability

Sample CCC(C)(C)C(=O)N(O)Cc1ccccc1 [Compound 92, reference compound] ; bioavailability observed: 2.6%

---

# experimental details: PK in rat
# Set-up: species or system SD rat
# test context: Sprague-Dawley, rat, in vivo, po, 60 mg/kg, SD rat, dose 60 mg/Kg micropower
Assign half-life to each entry below.
Field: numeric (h). Do not append units.

Consider [2H]CC([2H])C(C)(C)C(=O)N(O)Cc1cc(F)cc(F)c1 (centres unmarked) . Its measured half-life is 2.85

Sample "CCC(C)(C)C(=O)N(O)Cc1cc(F)cc(F)c1" ; half-life observed: 1.17

---

# System: necrosis
# experimental details: Necrosis inhibitory activity (cell necrosis / cell viability assay)
# Type: cell-based
# test context: Necrosis Inhibitory Activity, given as range; read-out: EC50
pEC50: −log10 of the molar value.
Answer each item with its documented pEC50.

The compound "CCC1(C(=O)N(O)Cc2ccc(Cl)cc2)CC1" , when measured on necrosis, yielded pEC50 of 5.00 to 6.00

Assay necrosis, sample "CCC(C)(C)C(=O)N(O)Cc1cc(F)cc(Cl)c1" , pEC50 read: 6.00 to 9.00

Fill in: necrosis pEC50 for "CCC(C)(C)C(=O)N(O)Cc1ccc(Cl)cc1" = 6.00 to 9.00

Query "CC(C)(CCF)C(=O)N(O)Cc1cc(F)cc(F)c1" on necrosis; pEC50 returned: 5.00 to 6.00

pEC50 value, target or system necrosis, for "[2H]C([2H])C([2H])([2H])C(C)(C)C(=O)N(O)Cc1ccc(F)cc1" : 6.00 to 9.00

Entry "Cc1cc(CN(O)C(=O)C(C)(C)C(F)(F)F)sc1C" ; assay system necrosis; pEC50 recorded at 6.00 to 9.00

Observed pEC50 on necrosis, entry "O=C(N(O)Cc1ccccc1)C1(C(F)(F)F)CCCC1" , equals 6.00 to 9.00

The reported necrosis pEC50 of "CCC1(C(=O)N(O)Cc2ccc(F)cc2)CC1" is 4.00 to 6.00

Field pEC50 (necrosis), entry "CC(C)(C(=O)N(O)Cc1cc(F)c(F)c(F)c1)C(F)(F)F" : 5.00 to 6.00

The compound "CCC(C)(C)C(=O)N(O)Cc1ccc(Cl)c(F)c1" on necrosis: pEC50 was 6.00 to 9.00

// assay necrosis, entry "C=CC(C)(C)C(=O)N(O)Cc1ccccc1" , pEC50 value = 6.00 to 9.00

Simply: "CCC(C)(C)C(=O)N(O)Cc1cccc(F)c1F" , necrosis, pEC50 = 6.00 to 9.00

Fill in: necrosis pEC50 for "O=C(C1CCN(c2ncc(F)cn2)CC1)N(O)Cc1ccccc1" = 6.00 to 9.00

Item "Cc1ccsc1CN(O)C(=O)C(C)(C)C(F)(F)F" was tested on necrosis; the reported pEC50 is 5.00 to 6.00

Tested system necrosis; pEC50 recorded for O=C(C1CCCC1)N(O)Cc1ccccc1 [Compound 33, N-benzyl-N-hydroxycydopentanecarboxamide] was 5.00 to 6.00

So the reported pEC50 for "CC(C)(C(=O)N(O)Cc1cccs1)C(F)(F)F" , on necrosis, turned out to be 6.00 to 9.00

Entry "CCC(C)(C)C(=O)N(O)Cc1cnc(C)s1" , necrosis data, pEC50 value: 6.00 to 9.00

Observed pEC50 on necrosis, entry "O=C(N(O)Cc1ccccc1)C1(C(F)(F)F)CCC1" , equals 6.00 to 9.00

Item: "CC1(C(C)(C)C(=O)N(O)Cc2ccccc2)CC1" | System: necrosis | pEC50: 6.00 to 9.00

Param item: "CC(C)(C(=O)N(O)Cc1ccc(Cl)cc1)C(F)(F)F" ; param system: necrosis; output pEC50: 6.00 to 9.00

Per the reported necrosis data, "CCC1(C(=O)N(O)Cc2cc(F)cc(F)c2)CC1" has pEC50 of 5.00 to 6.00

Entry "CCC(C)(C)C(=O)N(O)Cc1c(F)cc(F)cc1F" : pEC50 on necrosis = 5.00 to 6.00

Field pEC50 (necrosis), entry "CC(C)(C(=O)N(O)Cc1ccccc1)C(F)(F)F" : 6.00 to 9.00

Item: [2H]CC([2H])C(C)(C)C(=O)N(O)C([2H])([2H])c1c([2H])c([2H])c([2H])c([2H])c1[2H] (centres unmarked) | System: necrosis | pEC50: 6.00 to 9.00

With necrosis as the test system, "CCC(C)(C)C(=O)N(O)Cc1cccc(F)c1" showed pEC50 of 6.00 to 9.00

Entry "[2H]C([2H])C([2H])([2H])C(C)(C)C(=O)N(O)Cc1ccccc1" ; assay system necrosis; pEC50 recorded at 6.00 to 9.00

With necrosis as the test system, "CCC(C)(C)C(=O)N(O)Cc1cccc(Br)c1" showed pEC50 of 6.00 to 9.00

Entry CC(C)(C)C(=O)N(O)Cc1ccccc1 [Compound 7, N-benzyl-N-hydroxypivalamide] , necrosis data, pEC50 value: 6.00 to 9.00

With necrosis as the test system, "CCC(C)(C)C(=O)N(O)Cc1ccccn1" showed pEC50 of 5.00 to 6.00

The reported pEC50 value, necrosis, for "CCC(C)(C)C(=O)N(O)Cc1ccccc1F" reads 6.00 to 9.00

Here "CCC(C)(C)C(=O)N(O)CC1=CCCCC1" was tested on necrosis, and its pEC50 came to 6.00 to 9.00

The measured pEC50 that "CCC(C)(C)C(=O)N(O)Cc1sccc1C" showed for necrosis is 5.00 to 6.00

With necrosis as the test system, "CCC(C)(C)C(=O)N(O)Cc1ccccc1Cl" showed pEC50 of 6.00 to 9.00

pEC50 of "CCC(C)(C)C(=O)N(O)Cc1cc(C)c(C)s1" , assay on necrosis, is 6.00 to 9.00

Tested on necrosis, the item O=C(C1CCCCC1)N(O)Cc1ccccc1 [Compound 37, N-benzyl-N-hydroxycyclohexanecarboxamide] showed pEC50 equal to 5.00 to 6.00

Every entry's value here was drawn from patent US12129221B2.
